# EXPERIMENT SUMMARY: Organ distribution of injected radioactivity in rats after I.V. injection
# Type: in vivo, Ratten (weiblich, Wistar, spf)
# TEST SETTINGS: rat, liver, iv, Leber, 40′, Ratte, read-out: Prozent der injizierten Aktivität pro Gramm des entsprechenden Organs
REPORTED PROPERTY: tissue uptake at 40 min (%ID/g)
Report the figure in %ID/g without appending any unit label.

Task item: State its tissue uptake at 40 min: `CCOC(=O)c1ncn2c1CN(C)C(=O)c1c([123I])cccc1-2`
Reply: 0.58

###

# EXPERIMENT SUMMARY: Organ distribution of injected radioactivity in rats after I.V. injection
# Format: in vivo, Ratten (weiblich, Wistar, spf)
# TEST SETTINGS: rat, kidney, iv, Nieren, 60′, Ratte, read-out: Prozent der injizierten Aktivität pro Gramm des entsprechenden Organs
REPORTED PROPERTY: tissue uptake at 1 h (%ID/g)
Report the figure in %ID/g without appending any unit label.

Task item: State its tissue uptake at 1 h: `CCOC(=O)c1ncn2c1CN(C)C(=O)c1c([123I])cccc1-2`
Reply: 0.68

###

# EXPERIMENT SUMMARY: Organ distribution of injected radioactivity in rats after I.V. injection
# Type: in vivo, Ratten (weiblich, Wistar, spf)
# TEST SETTINGS: rat, lung, iv, Lunge, 60′, Ratte, read-out: Prozent der injizierten Aktivität pro Gramm des entsprechenden Organs
REPORTED PROPERTY: tissue uptake at 1 h

Task item: State its tissue uptake at 1 h: `CCOC(=O)c1ncn2c1CN(C)C(=O)c1c([123I])cccc1-2`
Reply: 0.1 %ID/g

###

# EXPERIMENT SUMMARY: Organ distribution of injected radioactivity in rats after I.V. injection
# Format: in vivo, Ratten (weiblich, Wistar, spf)
# TEST SETTINGS: rat, bladder, iv, Blase, 6h, Ratte, read-out: Prozent der injizierten Aktivität pro Gramm des entsprechenden Organs
REPORTED PROPERTY: tissue uptake at 6 h (%ID/g)
Report the figure in %ID/g without appending any unit label.

Task item: State its tissue uptake at 6 h: `CCOC(=O)c1ncn2c1CN(C)C(=O)c1c([123I])cccc1-2`
Reply: 0.57

###

# EXPERIMENT SUMMARY: Organ distribution of injected radioactivity in rats after I.V. injection
# Type: in vivo, Ratten (weiblich, Wistar, spf)
# TEST SETTINGS: rat, kidney, iv, Nieren, 6h, Ratte, read-out: Prozent der injizierten Aktivität pro Gramm des entsprechenden Organs
REPORTED PROPERTY: tissue uptake at 6 h (%ID/g)
Report the figure in %ID/g without appending any unit label.

Task item: State its tissue uptake at 6 h: `CCOC(=O)c1ncn2c1CN(C)C(=O)c1c([123I])cccc1-2`
Reply: 0.03

###

# EXPERIMENT SUMMARY: Organ distribution of injected radioactivity in rats after I.V. injection
# Format: in vivo, Ratten (weiblich, Wistar, spf)
# TEST SETTINGS: rat, blood, iv, Blut, 6h, Ratte, read-out: Prozent der injizierten Aktivität pro Gramm des entsprechenden Organs
REPORTED PROPERTY: tissue uptake at 6 h (%ID/g)
Report the figure in %ID/g without appending any unit label.

Task item: State its tissue uptake at 6 h: `CCOC(=O)c1ncn2c1CN(C)C(=O)c1c([123I])cccc1-2`
Reply: 0.04
